B1: scFv; the commonest letter at each place (parent)
chain 1: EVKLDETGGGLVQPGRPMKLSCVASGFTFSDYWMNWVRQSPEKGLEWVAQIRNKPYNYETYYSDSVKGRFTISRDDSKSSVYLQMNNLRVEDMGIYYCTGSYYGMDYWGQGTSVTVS
chain 2: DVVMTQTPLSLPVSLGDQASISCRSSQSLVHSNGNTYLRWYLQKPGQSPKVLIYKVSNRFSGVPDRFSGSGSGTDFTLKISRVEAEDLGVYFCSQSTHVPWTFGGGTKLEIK

# Variants of: B1
# method summary: Kd (Tite-Seq)
# cond: with fluorescein; format: scFv 4-4-20, heavy + light
pKd: −log10 of the molar value.
Known pKd of a selection of variants
reported endpoint: pKd

• chain 1 Y102G G104F = ≤ 5.00
• chain 1 S30C D31F = 5.22
• chain 1 Y103T W108S = ≤ 5.00
• chain 1 F29I W33H = ≤ 5.00
• chain 1 S101Q G104R = ≤ 5.00
• chain 1 S101I Y107K = ≤ 5.00
• chain 1 W33S W36I = ≤ 5.00
• chain 1 Y103I D106W = ≤ 5.00
• chain 1 M105F D106L = ≤ 5.00
• chain 1 M34Y W36V = ≤ 5.00
• chain 1 Y102M W108K = ≤ 5.00
• chain 1 V37T = 8.22
• chain 1 G100I W108K = ≤ 5.00
• chain 1 M34A W36T = ≤ 5.00
• chain 1 T28E S30V = 8.82
• chain 1 Y102G G109K = ≤ 5.00
• chain 1 D31H N35A W36R = ≤ 5.00
• chain 1 T28P Y32D W36I = ≤ 5.00
• chain 1 Y32R M34W V37M = ≤ 5.00
• chain 1 G109F = ≤ 5.00
• chain 1 D31H Y32F = 8.71
• chain 1 F29D Y32C = ≤ 5.00
• chain 1 S101E G104K M105C = ≤ 5.00
• chain 1 M34A W36M = ≤ 5.00
• chain 1 D31L W36H = ≤ 5.00
• chain 1 Y103H D106H = ≤ 5.00
• chain 1 M105A W108Q = ≤ 5.00
• chain 1 G104K G109F = ≤ 5.00
• chain 1 Y102K Y103A D106W = ≤ 5.00
• chain 1 D106M Y107C = ≤ 5.00
• chain 1 Y103M W108Q = 7.05
• chain 1 T28A W33I = ≤ 5.00
• chain 1 F29M D31N Y32A = 8.22
• chain 1 T28P S30G = 9.09
• chain 1 Y102F Y103I = 7.14
• chain 1 S101Y G104C = ≤ 5.00
• chain 1 S101W Y107T = ≤ 5.00
• chain 1 G100P M105A = ≤ 5.00
• chain 1 D31P M34V = ≤ 5.00
• chain 1 Y102Q M105D = ≤ 5.00
• chain 1 G100Y Y107T = ≤ 5.00
• chain 1 G104E M105V = ≤ 5.00
• chain 1 Y102K Y107R = 6.03
• chain 1 T28E S30W Y32D = ≤ 5.00
• chain 1 Y103W D106T = ≤ 5.00
• chain 1 Y102K G104L D106G = ≤ 5.00
• chain 1 G104H W108R = ≤ 5.00
• chain 1 F29I W33H M34P = ≤ 5.00
• chain 1 Y32L = 6.36
• chain 1 T28G F29P = ≤ 5.00
• chain 1 M105S D106N = ≤ 5.00
• chain 1 T28A W33S = ≤ 5.00
• chain 1 W33E N35R = ≤ 5.00
• chain 1 T28K Y32V = ≤ 5.00
• chain 1 S101A Y107S = 8.76
• chain 1 Y102H G104F = ≤ 5.00
• chain 1 Y103I D106A = ≤ 5.00
• chain 1 M105Y D106A = ≤ 5.00
• chain 1 W33Q N35E = ≤ 5.00
• chain 1 G100R Y107P W108D = ≤ 5.00
• chain 1 T28M S30A W36F = 8.80
• chain 1 M34H = ≤ 5.00
• chain 1 S101G G104Y = ≤ 5.00
• chain 1 Y32G N35V = ≤ 5.00
• chain 1 M105F W108L = 8.76
• chain 1 Y103L Y107S = 6.26
• chain 1 G104R D106P Y107A = ≤ 5.00
• chain 1 M34N W36A = ≤ 5.00
• chain 1 M105A G109A = ≤ 5.00
• chain 1 Y32F M34Q = ≤ 5.00
• chain 1 S101W G104W = ≤ 5.00
• chain 1 F29E M34E = ≤ 5.00
• chain 1 G100Y W108L = ≤ 5.00

Source of measurements: the FLAb antibody collection (doi:10.7554/elife.23156)
